Tested on: line DC-3F/AD
Experiment: Cytotoxicity (Microculture Tetrazolium Assay): reversal of resistance to actinomycin D, line DC-3F/AD
Format: cell-based, Chinese hamster
Conditions: 1 μM compound, 4 days
Procedure: The pharmacological study of the compounds of the present invention consisted first of all in an evaluation in vitro carried out on resistant cells. The parameter measured is the cytotoxicity of the antitumour drug, quantified in the absence and in the presence of the reversing compound. […] The cells are then incubated for 4 days. […] The results are expressed as a reversion factor (RF): PG,29 [formula]
property label: Reversion factors (cytotoxicity) with the line DC-3F/AD

[
  {
    "compound": "C=CCNc1nc(NCC=C)nc(NCCN2CCC(NC3c4ccccc4CCc4ccccc43)CC2)n1",
    "value": 0.9
  },
  {
    "compound": "C=CCNc1nc(NCC=C)nc(N2CCC(NCC3c4ccccc4CS(=O)(=O)c4ccccc43)CC2)n1 (racemic)",
    "value": 1.3
  },
  {
    "compound": "C=CCNc1nc(NCC=C)nc(N2CCC(NCC3c4ccccc4COc4ccccc43)CC2)n1 (racemic)",
    "value": 63
  },
  {
    "compound": "C=CCNc1nc(NCC=C)nc(NCC(O)CN2CCC(NC3c4ccccc4CCc4ccccc43)CC2)n1 (centres unmarked)",
    "value": 0.9
  },
  {
    "compound": "C=CCNc1nc(NCC=C)nc(NCC(O)CN2CCN(C3c4ccccc4CCc4ccccc43)CC2)n1 (centres unmarked)",
    "value": 1.1
  },
  {
    "compound": "C=CCNc1nc(NCC=C)nc(N2CCC(NCC3c4ccccc4CCc4ccccc43)CC2)n1",
    "value": 236
  },
  {
    "compound": "C=CCNc1nc(NCC)nc(N2CCC(NCC3c4ccccc4CCc4ccccc43)CC2)n1",
    "value": 177
  },
  {
    "compound": "C=CCNc1nc(NCC)nc(N2CCC(NCC3c4ccccc4COc4ccccc43)CC2)n1 (racemic)",
    "value": 33.8
  }
]
